All figures here come from patent US20050209195A1.

Would you mind telling me the reported IC50 of each entry?
target: Human cKit Tyrosine Kinase Receptor (human cKit RTK-catalytic domain) (Homo sapiens, UniProt P10721); construct: human cKit RTK-catalytic domain; purchased Panvera-Invitrogen P3080; assay: DELFIA cKit Tyrosine Kinase Assay (cell-free); format: biochemical; conditions: cell-free DELFIA, 25 ng cKit TKR, 150 μM ATP, 20 minutes at 30° C.; read-out: IC50
Sequence (P10721 589-937 limits assumed): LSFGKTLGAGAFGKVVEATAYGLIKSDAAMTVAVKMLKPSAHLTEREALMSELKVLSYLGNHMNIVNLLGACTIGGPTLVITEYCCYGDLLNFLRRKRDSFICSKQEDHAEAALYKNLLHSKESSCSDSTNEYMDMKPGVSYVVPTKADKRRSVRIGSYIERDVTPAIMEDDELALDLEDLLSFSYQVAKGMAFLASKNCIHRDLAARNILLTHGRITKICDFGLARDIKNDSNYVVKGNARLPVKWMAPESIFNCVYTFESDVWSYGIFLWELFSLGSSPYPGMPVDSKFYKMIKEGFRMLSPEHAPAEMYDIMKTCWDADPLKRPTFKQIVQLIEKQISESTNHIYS
Just the number in µM, nothing appended.

**Q:** Tell me IC50 reported for COc1ccc(OC(=O)Oc2ccc(/C=C3\C(=O)Nc4cc(OC)c(OC)cc43)cc2)cc1 [Example H.2]
**A:** 0.28

**Q:** Tell me IC50 reported for COc1ccc(OC(=O)Oc2ccc(/C=C3/C(=O)Nc4cc(OC)c(OC)cc43)cc2)cc1 [Example H.1]
**A:** 1.19

**Q:** Tell me IC50 reported for COc1cc2c(cc1OC)/C(=C\c1ccc(OC(=O)Nc3ccccc3)cc1)C(=O)N2 [Example A.1]
**A:** 1.66

**Q:** Tell me IC50 reported for COc1cc2c(cc1OC)/C(=C/c1ccc(OC(=O)CCCCNC(=O)OC(C)(C)C)cc1)C(=O)N2 [G.2]
**A:** 0.77

**Q:** Tell me IC50 reported for COc1cc2c(cc1OC)/C(=C\c1ccc(OP(=O)(O)O)cc1)C(=O)N2 [Example C.1]
**A:** 51.8

**Q:** Tell me IC50 reported for COc1cc2c(cc1OC)/C(=C\c1ccc(OC(=O)N3CCN(C)CC3)cc1)C(=O)N2 [Example B.1]
**A:** 4.46

**Q:** Tell me IC50 reported for COc1cc2c(cc1OC)/C(=C\c1ccc(OCCO)cc1)C(=O)N2 [D.1]
**A:** 3.63

**Q:** Tell me IC50 reported for COc1cc2c(cc1OC)/C(=C\c1ccc(OC(=O)N3CCC(N4CCCCC4)CC3)cc1)C(=O)N2 [B.5]
**A:** 4.68

###

Would you mind telling me the reported IC50 of each entry?
Target: human Ret TKR-catalytic domain (Homo sapiens)
Construct: human Ret TKR-catalytic domain; purchased ProQinase
Sequence (P07949 724-1016 limits assumed): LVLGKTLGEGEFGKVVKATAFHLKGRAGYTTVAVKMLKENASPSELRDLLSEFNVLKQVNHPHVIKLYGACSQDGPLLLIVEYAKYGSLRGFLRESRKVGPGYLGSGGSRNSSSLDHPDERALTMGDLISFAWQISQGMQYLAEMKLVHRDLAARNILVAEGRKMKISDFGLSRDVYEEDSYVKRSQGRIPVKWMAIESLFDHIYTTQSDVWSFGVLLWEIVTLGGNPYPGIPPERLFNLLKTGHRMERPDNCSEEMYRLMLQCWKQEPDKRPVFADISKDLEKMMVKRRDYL
Assay: DELFIA Ret Kinase Assay (cell-free)
Assay type: biochemical
Conditions: cell-free DELFIA, 50 ng Ret TKR, 3 μM ATP, 10 min. at 30° C.; read-out: IC50
Just the number in µM, nothing appended.

**Q:** Tell me IC50 reported for COc1cc2c(cc1OC)/C(=C\c1ccc(OC(=O)Nc3ccccc3)cc1)C(=O)N2 [Example A.1]
**A:** 8.39

**Q:** Tell me IC50 reported for COCCOCCOCC(=O)Oc1ccc(/C=C2/C(=O)Nc3cc(OC)c(OC)cc32)cc1 [F.3]
**A:** 3.79

**Q:** Tell me IC50 reported for COc1cc2c(cc1OC)/C(=C\c1ccc(OC(=O)CCCCNC(=O)OC(C)(C)C)cc1)C(=O)N2 [Example F.2]
**A:** 1.37

**Q:** Tell me IC50 reported for COc1cc2c(cc1OC)/C(=C\c1ccc(O)cc1)C(=O)N2
**A:** 3.67

**Q:** Tell me IC50 reported for COc1cc2c(cc1OC)/C(=C/c1ccc(OC(=O)c3cccn3C)cc1)C(=O)N2 [G.3]
**A:** 6.38

**Q:** Tell me IC50 reported for COc1cc2c(cc1OC)/C(=C\c1ccc(OP(=O)(O)O)cc1)C(=O)N2 [Example C.1]
**A:** 2.61

**Q:** Tell me IC50 reported for CCCCCNC(=O)Oc1ccc(/C=C2/C(=O)Nc3cc(OC)c(OC)cc32)cc1 [A.3]
**A:** 1.78

**Q:** Tell me IC50 reported for COc1cc2c(cc1OC)/C(=C\c1ccc(OC(=O)N3CCN(c4ccccc4)CC3)cc1)C(=O)N2 [B.7]
**A:** 3.23

**Q:** Tell me IC50 reported for CCCCCCNC(=O)Oc1ccc(/C=C2/C(=O)Nc3cc(OC)c(OC)cc32)cc1 [A.4]
**A:** 5.73

###

molecular target: human Ret TKR-catalytic domain (Homo sapiens); construct: human Ret TKR-catalytic domain; purchased ProQinase; experiment: DELFIA Ret Kinase Assay (cell-free); type: biochemical; conditions: cell-free DELFIA, 50 ng Ret TKR, 3 μM ATP, 10 min. at 30° C.; read-out: IC50
Assay readout: IC50 (µM)
Just the number in µM, nothing appended.

**Q:** Please report IC50 with human Ret TKR-catalytic domain (Homo sapiens) for item COc1cc2c(cc1OC)/C(=C\c1ccc(OC(=O)N3CCN(CCOCCO)CC3)cc1)C(=O)N2 [B.6] .
**A:** 6.65

**Q:** Please report IC50 with human Ret TKR-catalytic domain (Homo sapiens) for item COc1cc2c(cc1OC)/C(=C\c1ccc(OC(=O)N3CCC(N4CCCCC4)CC3)cc1)C(=O)N2 [B.5] .
**A:** 2.17

**Q:** Please report IC50 with human Ret TKR-catalytic domain (Homo sapiens) for item COc1ccc(OC(=O)Oc2ccc(/C=C3/C(=O)Nc4cc(OC)c(OC)cc43)cc2)cc1 [Example H.1] .
**A:** 4.43

###

Assay readout: melting point

**Q:** Tell me melting point reported for CCCCCCCCCC(=O)Oc1ccc(/C=C2/C(=O)Nc3cc(OC)c(OC)cc32)cc1
**A:** 138 to 140 °C

**Q:** Tell me melting point reported for COc1cc2c(cc1OC)/C(=C\c1ccc(OP(=O)(O)O)cc1)C(=O)N2
**A:** 218 to 220 °C

**Q:** Tell me melting point reported for COc1cc2c(cc1OC)/C(=C\c1ccc(OC(C)=O)cc1)C(=O)N2
**A:** 189 to 191 °C

**Q:** Tell me melting point reported for COc1cc2c(cc1OC)/C(=C\c1ccc(OC(=O)N3CCC(N4CCCCC4)CC3)cc1)C(=O)N2
**A:** 235 to 237 °C

**Q:** Tell me melting point reported for COc1cc2c(cc1OC)/C(=C\c1ccc(OC(=O)Nc3ccccc3)cc1)C(=O)N2
**A:** 201 to 203 °C

**Q:** Tell me melting point reported for COc1cc2c(cc1OC)/C(=C\c1ccc(OC(=O)c3cccnc3)cc1)C(=O)N2
**A:** 227 to 229 °C

**Q:** Tell me melting point reported for COc1cc2c(cc1OC)/C(=C\c1ccc(OC(=O)c3ccccc3)cc1)C(=O)N2
**A:** 228 to 230 °C

**Q:** Tell me melting point reported for CCCCCCCCCC(=O)Oc1ccc(/C=C2\C(=O)Nc3cc(OC)c(OC)cc32)cc1
**A:** 95 to 97 °C

**Q:** Tell me melting point reported for COc1cc2c(cc1OC)/C(=C\c1ccc(OC(=O)N3CCN(c4ccccc4)CC3)cc1)C(=O)N2
**A:** > 260 °C

**Q:** Tell me melting point reported for CCCCCNC(=O)Oc1ccc(/C=C2/C(=O)Nc3cc(OC)c(OC)cc32)cc1
**A:** 173 to 175 °C

**Q:** Tell me melting point reported for COc1cc2c(cc1OC)/C(=C\c1ccc(OC(=O)N3CCN(C)CC3)cc1)C(=O)N2
**A:** 198 to 200 °C

**Q:** Tell me melting point reported for COc1cc2c(cc1OC)/C(=C\c1ccc(OC(=O)NC(C)(C)C)cc1)C(=O)N2
**A:** 238 to 240 °C

**Q:** Tell me melting point reported for COc1cc2c(cc1OC)/C(=C\c1ccc(OC(=O)N3CCOCC3)cc1)C(=O)N2
**A:** 255 to 257 °C
